Origin of the recorded values: patent US20250066358A1

Provide the recorded CC50 at 7 days for the entries that follow.
Assay: HEK293 Cellular Growth Inhibition Assay (CellTiter-Glo)
Type: cell-based
Settings: human, HEK293 cells, 7 days of incubation

Request the reported CC50 at 7 days associated with FC(F)(F)Cc1ccc2ncnc(N3CC4(CCN(Cc5cccc6[nH]ccc56)CC4)C3)c2c1 [Compound 83]
5 to 15 µM

So what's the measured CC50 at 7 days for this one? CCS(=O)(=O)NC12CC(CN3CCC4(CC3)CN(c3ncnc5ccc(CC(F)(F)F)cc35)C4)(C1)C2 [Compound 74]
30 to 50 µM

Return reported CC50 at 7 days; argument: FC(F)(F)Cc1ccc2ncnc(N3CC4(CCN(Cc5ccc6[nH]ccc6c5)CC4)C3)c2c1 [Compound 90]
5 to 15 µM

Given CCS(=O)(=O)N[C@H]1CC[C@H](CN2CCC3(CC2)CN(c2ncnc4ccc(C#Cc5ccccc5)cc24)C3)CC1 [Compound 53] , state its recorded CC50 at 7 days.
≤ 5 µM
